- assay_comment: Half life in patient with advanced solid tumor at 120 mg, po administered once daily measured on day 15
- Format: ADME, organism-based
- condition_description: human, in vivo
quantity_name: half-life (h)

>>> df
                               query_smiles  quantity_name  recorded_value
0  CS(=O)(=O)c1ccc(Oc2cc(F)cc(C#N)c2)c2c1[C@H](O)[C@H](F)[C@@H]2F      half-life            20.9

---

- assay_comment: Half life in Sprague-Dawley rat at 1 mg/kg, iv by UPLC-MS analysis
- Assay type: ADME, organism-based
- condition_description: in vivo
quantity_name: half-life

>>> print(df.to_string())
                               query_smiles  quantity_name  recorded_value
0  CS(=O)(=O)c1ccc(Oc2cc(F)cc(C#N)c2)c2c1[C@H](O)[C@H](F)[C@@H]2F      half-life           1.4 h

---

As shown below, each of these compounds has a reported logD value.
- assay_comment: Lipophilicity, log D of the compound at pH 7.4
- Type: physicochemical
- condition_description: buffer
quantity_name: logD

In [3]: df
Out[3]:
                               query_smiles  recorded_value
0  CS(=O)(=O)c1ccc(Oc2cc(F)cc(C#N)c2)c2c1[C@H](O)[C@H](F)[C@@H]2F             1.2
1  CS(=O)(=O)c1ccc(Oc2cc(F)cc(C#N)c2)c2c1[C@H](O)C(F)(F)C2             2.2

---

- study_system: Voltage-gated inwardly rectifying potassium channel KCNH2 (Homo sapiens)
- Sequence (Q12809 whole entry): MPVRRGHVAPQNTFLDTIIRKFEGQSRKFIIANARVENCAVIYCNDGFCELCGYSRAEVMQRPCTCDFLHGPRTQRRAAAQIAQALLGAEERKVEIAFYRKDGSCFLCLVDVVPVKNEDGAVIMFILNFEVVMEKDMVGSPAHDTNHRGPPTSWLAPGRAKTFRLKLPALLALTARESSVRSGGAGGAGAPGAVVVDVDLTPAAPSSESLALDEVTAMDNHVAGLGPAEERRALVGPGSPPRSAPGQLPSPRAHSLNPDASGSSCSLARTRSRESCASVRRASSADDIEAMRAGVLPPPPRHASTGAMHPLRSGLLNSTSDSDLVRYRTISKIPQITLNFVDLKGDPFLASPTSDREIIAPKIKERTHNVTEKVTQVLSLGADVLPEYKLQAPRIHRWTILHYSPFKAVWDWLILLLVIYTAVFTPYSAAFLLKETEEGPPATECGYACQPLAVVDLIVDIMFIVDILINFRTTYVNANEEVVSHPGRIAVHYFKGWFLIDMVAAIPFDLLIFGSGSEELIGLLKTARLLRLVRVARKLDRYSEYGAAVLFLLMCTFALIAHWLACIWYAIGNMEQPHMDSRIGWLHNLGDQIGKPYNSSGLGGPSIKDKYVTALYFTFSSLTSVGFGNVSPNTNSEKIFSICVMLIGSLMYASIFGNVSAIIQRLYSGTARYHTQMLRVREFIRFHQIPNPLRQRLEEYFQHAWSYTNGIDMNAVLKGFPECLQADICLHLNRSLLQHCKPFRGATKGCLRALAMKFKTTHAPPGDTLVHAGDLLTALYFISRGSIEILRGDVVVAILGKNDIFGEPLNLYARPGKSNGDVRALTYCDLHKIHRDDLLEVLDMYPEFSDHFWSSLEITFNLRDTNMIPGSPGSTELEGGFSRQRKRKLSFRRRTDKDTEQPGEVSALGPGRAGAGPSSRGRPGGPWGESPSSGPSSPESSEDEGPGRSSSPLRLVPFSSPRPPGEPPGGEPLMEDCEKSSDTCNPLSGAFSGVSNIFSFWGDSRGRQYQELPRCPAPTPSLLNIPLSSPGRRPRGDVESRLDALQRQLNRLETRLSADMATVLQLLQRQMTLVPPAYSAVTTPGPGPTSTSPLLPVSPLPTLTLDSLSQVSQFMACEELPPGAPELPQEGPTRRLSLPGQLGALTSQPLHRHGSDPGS
- assay_comment: Inhibition of human ERG expressed in mammalian expression system by Q-patch clamp electrophysiology method
pIC50: −log10 of the molar value.
quantity_name: pIC50

                               query_smiles  quantity_name  recorded_value
0  CS(=O)(=O)c1ccc(Oc2cc(F)cc(C#N)c2)c2c1[C@H](O)[C@H](F)[C@@H]2F          pIC50          < 4.30

---

As shown below, each of these molecules has a reported Km at 1 h, 50 µM value.
- study_system: UGT2B17 (Homo sapiens, UniProt O75795)
- Sequence (O75795 whole entry): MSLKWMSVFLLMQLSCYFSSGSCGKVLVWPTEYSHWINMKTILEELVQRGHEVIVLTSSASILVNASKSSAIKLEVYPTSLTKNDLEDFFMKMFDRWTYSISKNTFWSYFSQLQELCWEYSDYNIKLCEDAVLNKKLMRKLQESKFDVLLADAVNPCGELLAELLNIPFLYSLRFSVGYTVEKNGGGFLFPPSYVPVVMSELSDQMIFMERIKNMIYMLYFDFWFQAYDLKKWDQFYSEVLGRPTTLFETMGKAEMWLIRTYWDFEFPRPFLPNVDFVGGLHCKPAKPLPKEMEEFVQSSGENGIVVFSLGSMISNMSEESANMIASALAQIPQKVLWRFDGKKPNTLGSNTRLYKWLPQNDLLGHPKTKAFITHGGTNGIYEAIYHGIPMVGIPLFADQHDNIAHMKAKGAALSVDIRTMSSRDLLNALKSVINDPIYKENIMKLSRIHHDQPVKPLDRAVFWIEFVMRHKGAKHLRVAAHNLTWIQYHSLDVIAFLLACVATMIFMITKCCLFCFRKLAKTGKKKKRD
- assay_comment: Substrate activity at recombinant human UGT2B17 expressed in baculovirus infected insect cell membranes assessed as enzyme-mediated glucuronidation by measuring Km at 50 uM preincubated for 5 mins followed by UDPGA addition and measured after 60 mins by LC-MS/MS analysis
- Assay type: ADME
quantity_name: Km at 1 h, 50 µM (µM)

>>> print(df.to_string())
                               query_smiles  unit_text  recorded_value
0  CS(=O)(=O)c1ccc(Oc2cc(F)cc(C#N)c2)c2c1[C@H](O)C(F)(F)[C@@H]2F         µM             5.5
1  CS(=O)(=O)c1ccc(Oc2cc(F)cc(C#N)c2)c2c1[C@H](O)[C@@H](F)C2         µM              15
2  CS(=O)(=O)c1ccc(Oc2cc(F)cc(C#N)c2)c2c1[C@H](O)[C@H](F)[C@@H]2F         µM              10
3  CS(=O)(=O)c1ccc(Oc2cc(F)cc(C#N)c2)c2c1[C@H](O)C(F)(F)C2         µM              11
4  CS(=O)(=O)c1ccc(Oc2cc(F)cc(C#N)c2)c2c1[C@H](O)[C@H](F)C2         µM              15
5  CS(=O)(=O)c1ccc(Oc2cc(F)cc(C#N)c2)c2c1[C@H](O)C[C@@H]2F         µM              12
6  CS(=O)(=O)c1ccc(Oc2cc(F)cc(C#N)c2)c2c1[C@H](O)CC2         µM              12

Reference source: ChEMBL document CHEMBL4311943
